# assay system: CDK5/p25 (Homo sapiens)
# method summary: CDK5/p25 kinase assay (Nanosyn, Caliper microfluidic)
# condition: 12-point dose-response, ATP at Km (20 μM), 3 hr
pIC50: −log10 of the molar value.
The label depends only on pIC50: true (1) if it is at least 5, false (0) if it is smaller.

Field: example entries. Status: answers known.
{"given smiles": "O=C1NCC2(CCCCC2)n2c1cc1cnc(N[C@H]3CC[C@H](N4CCOCC4)CC3)nc12", "assay system": "CDK5/p25 (Homo sapiens)", "class name": "true (1)"}
{"given smiles": "O=C1NCC2(CCCCC2)n2c1cc1cnc(NC(=O)[C@H]3CNCCN3)nc12", "assay system": "CDK5/p25 (Homo sapiens)", "class name": "false (0)"}
{"given smiles": "O=C1NCC2(CCCCC2)n2c1cc1cnc(N[C@H]3C[C@@H](O)CNC3=O)nc12", "assay system": "CDK5/p25 (Homo sapiens)", "class name": "false (0)"}
{"given smiles": "S=C1NCC2(CCCCC2)n2c1cc1cnc(N[C@H]3CCCNC3)nc12", "assay system": "CDK5/p25 (Homo sapiens)", "class name": "true (1)"}
{"given smiles": "CN(C)[C@H]1CC[C@H](Nc2ncc3cc4n(c3n2)C2(CCCCC2)CNC4=O)CC1", "assay system": "CDK5/p25 (Homo sapiens)", "class name": "true (1)"}

Data request: Does the compound `O=C1NCC2(CCCCC2)n2c1cc1cnc(N[C@H]3CC[C@H](NCc4cccnc4)CC3)nc12` have recorded pIC50 that is 5 or more?
Data returned: true (1)

Data request: Say whether `O=C(C[C@H]1CCCN1)Nc1ncc2cc3n(c2n1)C1(CCCCC1)CNC3=O` shows pIC50 of 5 or more.
Data returned: false (0)

Data request: Check the entry `CN1CCN([C@H]2CC[C@@H](Nc3ncc4cc5n(c4n3)C3(CCCCC3)CNC5=S)CC2)CC1` : does pIC50 equal or exceed 5?
Data returned: true (1)

Data request: // inclusive: pIC50 at least 5? input: `O=C1NCC2(CCCCC2)n2c1cc1cnc(N[C@@H]3C[C@@H](O)CNC3=O)nc12`
Data returned: false (0)

Data request: Hello, I need to know if `O=C1NCC2(CCCCC2)n2c1cc1cnc(NC(=O)[C@H]3CNCCO3)nc12` has measured pIC50 not below 5. Thanks!
Data returned: false (0)

Data request: API: above_or_equal(metric=pIC50, cutoff=5) for item `C1=NCC2(CCCCC2)n2c1cc1cnc(N[C@H]3CCCNC3)nc12`
Data returned: true (1)

Data request: Is pIC50 for `O=C1NCC2(CCCCC2)n2c1cc1cnc(N[C@H]3CC[C@H](N4CCCCC4)CC3)nc12` at or above 5?
Data returned: true (1)

Data request: Check this compound for pIC50 at or above 5: `O=C1NCC2(CCCCC2)n2c1cc1cnc(NC(=O)[C@@H]3CCCNC3)nc12`
Data returned: false (0)

Data request: Textbook exercise: given the entry `O=C1NCC2(CCCCC2)n2c1cc1cnc(NC(=O)[C@H]3CCNC3)nc12` , state whether its pIC50 is greater than or equal to 5.
Data returned: false (0)

###

# assay system: CDK2/Cyclin A (Homo sapiens, UniProt P24941)
# method summary: CDK2/Cyclin A kinase assay (Nanosyn, Caliper microfluidic)
# condition: 12-point dose-response, ATP at Km (50 μM), 3 hr
experimental endpoint: pIC50
Please keep in mind that pIC50 is minus log10 of the molar concentration; only the number is needed.

Use these answered entries as a reference point.
{"given smiles": "O=C1NCC2(CCCCC2)n2c1cc1cnc(N[C@H]3CC[C@H](NC4CCOCC4)CC3)nc12", "pIC50": 6.96}
{"given smiles": "CN(C)[C@H]1CC[C@H](Nc2ncc3cc4n(c3n2)C2(CCCCC2)CNC4=O)CC1", "pIC50": 6.85}
{"given smiles": "C1=NCC2(CCCCC2)n2c1cc1cnc(N[C@H]3CCCNC3)nc12", "pIC50": 6.55}

Attention now shifts to the item below.
Kindly note the recorded pIC50 for `C1=NCC2(CCCCC2)n2c1cc1cnc(N[C@@H]3CCCNC3)nc12` , which is 6.05

###

Listed compounds paired with reported pIC50
# assay system: CDK4/Cyclin D1 (Homo sapiens, UniProt P11802)
# Sequence (P11802 whole entry): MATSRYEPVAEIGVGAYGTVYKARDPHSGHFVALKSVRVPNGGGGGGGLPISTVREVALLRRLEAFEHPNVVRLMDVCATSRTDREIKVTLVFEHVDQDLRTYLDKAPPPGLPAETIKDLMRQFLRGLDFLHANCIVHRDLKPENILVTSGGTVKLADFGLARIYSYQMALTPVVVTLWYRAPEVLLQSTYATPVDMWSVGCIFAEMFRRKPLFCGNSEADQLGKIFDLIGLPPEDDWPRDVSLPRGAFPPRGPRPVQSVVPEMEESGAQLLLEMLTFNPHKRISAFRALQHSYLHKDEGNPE
# Sequence (P24385 whole entry partner): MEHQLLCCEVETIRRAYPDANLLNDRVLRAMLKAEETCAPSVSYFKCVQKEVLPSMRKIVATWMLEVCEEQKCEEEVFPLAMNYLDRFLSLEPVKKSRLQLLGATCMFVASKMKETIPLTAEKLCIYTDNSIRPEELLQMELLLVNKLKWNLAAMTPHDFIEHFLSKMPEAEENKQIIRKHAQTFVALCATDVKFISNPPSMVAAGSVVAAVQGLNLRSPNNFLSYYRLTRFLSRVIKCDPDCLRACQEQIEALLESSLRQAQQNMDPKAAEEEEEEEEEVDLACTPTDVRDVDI
# method summary: CDK4/Cyclin D1 kinase assay (Nanosyn, Caliper microfluidic)
# Type: biochemical
# condition: 12-point dose-response, ATP at Km (200 μM), 3 hr; Table 6
Here pIC50 is given on a logarithmic scale as minus log10 of the concentration in mol/L.

Answered cases to consult:
{"given smiles": "O=C1NCC2(CCCCC2)n2c1cc1cnc(N[C@H]3CC[C@H](N4CCN(C(=O)C5CC5)CC4)CC3)nc12", "pIC50": 7.70}
{"given smiles": "O=C1NCC2(CCCCC2)n2c1cc1cnc(N[C@H]3CC[C@H](N4CCN(c5ccc(F)cc5)CC4)CC3)nc12", "pIC50": 7.89}
{"given smiles": "O=C1NCC2(CCCCC2)n2c1cc1cnc(N[C@H]3CC[C@H](N4CCN(CC5CCCCC5)CC4)CC3)nc12", "pIC50": 7.89}
{"given smiles": "O=C1NCC2(CCCCC2)n2c1cc1cnc(N[C@H]3CC[C@H](N4CCC(C(F)(F)F)CC4)CC3)nc12", "pIC50": 7.57}
{"given smiles": "CC(C)(C)N1CCN([C@H]2CC[C@H](Nc3ncc4cc5n(c4n3)C3(CCCCC3)CNC5=O)CC2)CC1", "pIC50": 8.30}
{"given smiles": "O=C1NCC2(CCCCC2)n2c1cc1cnc(N[C@H]3CC[C@H](N4CCN(C5CC5)CC4)CC3)nc12", "pIC50": 7.48}

Now, please, on to the next compound.
Consider `O=C1NCC2(CCCCC2)n2c1cc1cnc(N[C@H]3CC[C@H](N4CCN(C5CCCC5)CC4)CC3)nc12` . Its measured pIC50 is 8.40

###

# assay system: CDK9/Cyclin T (Homo sapiens)
# Sequence (P50750 whole entry): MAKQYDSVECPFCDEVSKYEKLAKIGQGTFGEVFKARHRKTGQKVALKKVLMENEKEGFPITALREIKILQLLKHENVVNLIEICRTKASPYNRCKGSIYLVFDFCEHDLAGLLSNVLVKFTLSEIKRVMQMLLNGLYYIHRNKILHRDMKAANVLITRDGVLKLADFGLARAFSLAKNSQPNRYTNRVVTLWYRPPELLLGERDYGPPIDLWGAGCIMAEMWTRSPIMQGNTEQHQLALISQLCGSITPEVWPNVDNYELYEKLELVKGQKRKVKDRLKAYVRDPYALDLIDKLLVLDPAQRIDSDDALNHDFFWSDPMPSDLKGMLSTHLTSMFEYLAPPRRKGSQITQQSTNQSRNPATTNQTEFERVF
# Sequence (O60563 whole entry partner): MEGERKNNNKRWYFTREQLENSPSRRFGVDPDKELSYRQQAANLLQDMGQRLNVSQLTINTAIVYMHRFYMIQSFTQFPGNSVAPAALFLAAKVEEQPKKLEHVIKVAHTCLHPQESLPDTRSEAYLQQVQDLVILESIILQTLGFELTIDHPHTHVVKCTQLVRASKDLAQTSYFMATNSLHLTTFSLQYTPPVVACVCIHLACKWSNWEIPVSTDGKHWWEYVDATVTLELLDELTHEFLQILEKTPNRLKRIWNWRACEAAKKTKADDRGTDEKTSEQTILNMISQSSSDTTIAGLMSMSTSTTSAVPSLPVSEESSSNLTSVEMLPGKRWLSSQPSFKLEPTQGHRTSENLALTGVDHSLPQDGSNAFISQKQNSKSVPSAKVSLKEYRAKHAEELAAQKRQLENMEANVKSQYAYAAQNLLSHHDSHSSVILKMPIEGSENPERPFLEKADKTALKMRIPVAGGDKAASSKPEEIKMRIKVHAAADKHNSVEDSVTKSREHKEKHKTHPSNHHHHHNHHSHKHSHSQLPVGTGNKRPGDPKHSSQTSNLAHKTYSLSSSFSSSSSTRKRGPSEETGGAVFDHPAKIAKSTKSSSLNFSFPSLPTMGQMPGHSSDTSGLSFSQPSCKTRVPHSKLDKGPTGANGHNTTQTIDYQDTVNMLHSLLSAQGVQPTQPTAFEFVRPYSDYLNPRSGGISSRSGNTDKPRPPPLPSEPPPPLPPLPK
# method summary: CDK9/Cyclin T kinase assay (Nanosyn, Caliper microfluidic)
# Format: biochemical
# condition: 12-point dose-response, ATP at Km (10 μM), 17 hr; Table 5
// reported IC50 for each item listed
Give the value, in units of nM, as a plain number.

{"given smiles": "O=C1NCC2(CCCCC2)n2c1cc1cnc(N[C@H]3CC[C@H](NCc4ccccc4F)CC3)nc12", "IC50 [nM]": 4.7}
{"given smiles": "O=C1NCC2(CCCCC2)n2c1cc1cnc(N[C@H]3CCCNC3=O)nc12", "IC50 [nM]": 690}
{"given smiles": "S=C1NCC2(CCCCC2)n2c1cc1cnc(N[C@H]3CCCNC3)nc12", "IC50 [nM]": 3.4}
{"given smiles": "N[C@H]1CC[C@@H](Nc2ncc3cc4n(c3n2)C2(CCCCC2)CN=C4)CC1", "IC50 [nM]": 22}

Looking up `O=C1NCC2(CCCCC2)n2c1cc1cnc(NC(=O)[C@H]3CNCCO3)nc12` , I see its IC50 listed as 88

Form: compound = `O=C1NCC2(CCCCC2)n2c1cc1cnc(N[C@H]3CCCNC3)nc12` ; IC50 = 2.6

###

Reported pIC50 values are given for each entry in this list.
# assay system: CDK5/p25 (Homo sapiens, UniProt Q00535)
# Sequence (Q00535 whole entry): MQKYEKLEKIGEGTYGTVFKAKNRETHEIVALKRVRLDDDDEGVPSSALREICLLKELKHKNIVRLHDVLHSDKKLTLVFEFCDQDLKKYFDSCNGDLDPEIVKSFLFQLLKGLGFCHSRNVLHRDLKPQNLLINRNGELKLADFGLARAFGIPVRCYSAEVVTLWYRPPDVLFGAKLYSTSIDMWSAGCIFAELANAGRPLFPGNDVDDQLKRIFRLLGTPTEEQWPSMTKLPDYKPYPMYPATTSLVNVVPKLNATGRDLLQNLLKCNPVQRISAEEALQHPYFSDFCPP
# Sequence (Q15078 99-307 partner limits assumed): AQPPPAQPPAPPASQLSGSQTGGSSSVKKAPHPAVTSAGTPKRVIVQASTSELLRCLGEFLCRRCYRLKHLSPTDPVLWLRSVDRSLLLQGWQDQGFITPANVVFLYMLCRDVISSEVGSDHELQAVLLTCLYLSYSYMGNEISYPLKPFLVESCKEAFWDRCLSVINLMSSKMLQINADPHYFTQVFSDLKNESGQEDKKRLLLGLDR
# method summary: CDK5/p25 kinase assay (Nanosyn, Caliper microfluidic)
# condition: 12-point dose-response, ATP at Km (20 μM), 3 hr
Just the number, please; pIC50 means minus log10 of the concentration in mol/L.

Reported pIC50 ( `C1=NCC2(CCCCC2)n2c1cc1cnc(N[C@@H]3CCCNC3)nc12` ) = 5.82

What the record says about `O=C1NCC2(CCCCC2)n2c1cc1cnc(NC(=O)[C@@H]3CCNC3)nc12` : pIC50 is 4.72

Please fill in: pIC50 reported for `O=C1NCC2(CCCCC2)n2c1cc1cnc(N[C@H]3CC[C@H](NC4CCOCC4)CC3)nc12` = 6.32

Value of measured pIC50 for the entry `O=C1NCC2(CCCCC2)n2c1cc1cnc(N[C@H]3CC[C@H](NCc4ccccc4F)CC3)nc12` : 6.43

###

# assay system: CDK9/Cyclin T (Homo sapiens)
# method summary: CDK9/Cyclin T kinase assay (Nanosyn, Caliper microfluidic)
# Type: biochemical
# condition: 12-point dose-response, ATP at Km (10 μM), 17 hr; Table 6
This section presents molecules with their documented IC50 values.

Reference set (2 entries):
{"molecule": "CC(C)(C)N1CCN([C@H]2CC[C@H](Nc3ncc4cc5n(c4n3)C3(CCCCC3)CNC5=O)CC2)CC1 [Compound 57]", "experimental endpoint": "IC50", "experimental result": "3 nM"}
{"molecule": "O=C1NCC2(CCCCC2)n2c1cc1cnc(N[C@H]3CC[C@H](N4CCN(c5ccc(F)cc5)CC4)CC3)nc12 [Compound 60]", "experimental endpoint": "IC50", "experimental result": "3 nM"}

Lab note: O=C1NCC2(CCCCC2)n2c1cc1cnc(N[C@H]3CC[C@H](N4CCN(C5CCCC5)CC4)CC3)nc12 [Compound 59] gave IC50 of 2 nM

The recorded IC50 for entry O=C1NCC2(CCCCC2)n2c1cc1cnc(N[C@H]3CC[C@H](N4CCC(C(F)(F)F)CC4)CC3)nc12 [Compound 56] equals 4 nM
